Measured values drawn from patent US10179125B2 for this set.

Test system: hIL-6
Test: Inhibition of hIL-6 mRNA transcription in LPS-stimulated U937 cells
Type: cell-based, Human
Conditions: Homo sapiens, U-937, PMA-differentiated U937 cells, 1 h pretreatment, LPS 3 h, read-out: IL-6 activity
Procedure: Human leukemic monocyte lymphoma U937 cells (CRL-1593.2) were plated at a density of 3.2×10^4 cells per well in a 96-well plate in 100 μL RPMI-1640 containing 10% FBS and penicillin/streptomycin, and differentiated into macrophages for 3 days in 60 ng/mL PMA ([…]) at 37° C. in 5% CO2 prior to the addition of compound. […]
propertyLabel: IC50

COc1ncc(-c2c(C)noc2C)cc1Nc1ccc(F)cc1: 0.3 to 3 µM
COc1ncc(-c2c(C)noc2C)cc1NCc1nc2ccccc2[nH]1: 3 to 30 µM
CCOc1ncc(-c2c(C)noc2C)cc1NCc1ccccc1: 0.3 to 3 µM
COc1ncc(-c2c(C)noc2C)cc1-c1c(C)noc1C: 3 to 30 µM
COc1ncc(-c2c(C)noc2C)cc1OCc1ccc(C#N)cc1: 3 to 30 µM
Cc1noc(C)c1-c1cnc(Oc2ccccc2)c(NCc2ccccc2)c1: 0.3 to 3 µM
COc1ncc(-c2c(C)noc2C)cc1NCc1ccc(C#N)c(F)c1: ≤ 0.3 µM
COc1ncc(-c2c(C)noc2C)cc1NCc1ccsc1: ≤ 0.3 µM
Cc1noc(C)c1-c1cnc(OC(C)C)c(NCc2ccccc2)c1: 0.3 to 3 µM
COc1ncc(-c2c(C)noc2C)cc1OCc1ccccn1: 0.3 to 3 µM
COc1ncc(-c2c(C)noc2C)cc1Oc1ccccc1: 0.3 to 3 µM
COc1ncc(-c2c(C)noc2C)cc1NCc1nccs1: 0.3 to 3 µM
COc1ncc(-c2c(C)noc2C)cc1Nc1c(C)noc1C: ≤ 0.3 µM
CNc1ncc(-c2c(C)noc2C)cc1NCc1ccccn1: 0.3 to 3 µM
COc1ncc(-c2c(C)noc2C)cc1NC(C)c1ccccn1 (stereo not shown): 0.3 to 3 µM
COc1ncc(-c2c(C)noc2C)cc1NC(C)c1ccc(F)cc1 (stereo not shown): 0.3 to 3 µM
CNc1ncc(-c2c(C)noc2C)cc1NCc1ccccc1: ≤ 0.3 µM
COc1ncc(-c2c(C)noc2C)cc1NCc1nc2ccccc2s1: 0.3 to 3 µM
COc1ncc(-c2c(C)noc2C)cc1Nc1cccnc1: 3 to 30 µM
